assay: plasma concentration of compound at four hours after the of intraperitoneal administration of 50 mg/kg; format: ADME, organism-based; design: dose 50 mg/kg, route intraperitoneal; conditions: ip
metric: concentration at 4 h (ng/mL)
Give bare numbers, in ng/mL.

stdin: Return reported concentration at 4 h; argument: COc1cc(Nc2c(C#N)cnc3cc(OCCCN4CCOCC4)c(OC)cc23)c(Cl)cc1Cl
stdout: 100

====

species on record: Rattus norvegicus; assay: Ability to inhibit the proliferation of c-Src transformed rat fibroblasts growing in suspension; format: functional
Provide the recorded pIC50 for the entries that follow.
Numbers only, as −log10 of the molar value.

COc1cc(Nc2c(C#N)cnc3cc(OCCCN4CCCCC4)c(OC)cc23)c(Cl)cc1Cl
6.82
CCCN1CCN(CCCOc2cc3ncc(C#N)c(Nc4cc(OC)c(Cl)cc4Cl)c3cc2OC)CC1
6.80

Here are 5 molecules. What values of pIC50 were reported for them?
1. COc1cc(Nc2c(C#N)cnc3cc(OCCCN4CCN(CCO)CC4)c(OC)cc23)c(Cl)cc1Cl
2. COc1cc(Nc2c(C#N)cnc3cc(OCCN4CCOCC4)c(OC)cc23)c(Cl)cc1Cl
3. COc1cc(Nc2c(C#N)cnc3cc(OCCCN4CCOCC4)c(OC)cc23)c(Cl)cc1Cl
4. COc1cc(Nc2c(C#N)cnc3cc(OCCCn4ccnn4)c(OC)cc23)c(Cl)cc1Cl
5. COc1cc(Nc2c(C#N)cnc3cc(OCCCCN4CCOCC4)c(OC)cc23)c(Cl)cc1Cl

stdout:
1: 6.21; 2: 6.72; 3: 6.85; 4: 6.04; 5: 6.48

Here are 4 molecules. What values of pIC50 were reported for them?
1. COc1cc(Nc2c(C#N)cnc3cc(OCCCN4CCNCC4)c(OC)cc23)c(Cl)cc1Cl
2. COc1cc(Nc2c(C#N)cnc3cc(OCCCN4CCN(C)CC4)c(OC)cc23)c(Cl)cc1Cl
3. COc1cc(Nc2c(C#N)cnc3cc(OCCCN4CCOCC4)c(OC)cc23)c(Cl)cc1C
4. COc1cc(Nc2c(C#N)cnc3cc(OCCCN4CCC(O)CC4)c(OC)cc23)c(Cl)cc1Cl

stdout:
5.77
7.00
7.00
6.08

Here are 5 molecules. What values of pIC50 were reported for them?
1. COc1cc(Nc2c(C#N)cnc3cc(OCCCCCN4CCOCC4)c(OC)cc23)c(Cl)cc1Cl
2. COc1cc(Nc2c(C#N)cnc3cc(OC)c(OCCCN4CCOCC4)cc23)c(Cl)cc1Cl
3. COc1ccc(Cl)c(Nc2c(C#N)cnc3cc(OCCCN4CCOCC4)c(OC)cc23)c1
4. COc1cc(Nc2c(C#N)cnc3cc(OCCCN4CC(C)N(C)C(C)C4)c(OC)cc23)c(Cl)cc1Cl (centres undefined)
5. COc1cc(Nc2c(C#N)cnc3cc(OCCCN4CCCN(C)CC4)c(OC)cc23)c(Cl)cc1Cl

stdout:
1: 6.49; 2: 5.92; 3: 6.82; 4: 6.66; 5: 6.46

Here are 3 molecules. What values of pIC50 were reported for them?
1. COc1cc2c(Nc3ccc(Cl)cc3Cl)c(C#N)cnc2cc1OCCCN1CCOCC1
2. COc1cc(Nc2c(C#N)cnc3cc(OCCCn4nccn4)c(OC)cc23)c(Cl)cc1Cl
3. CCN1CCN(CCCOc2cc3ncc(C#N)c(Nc4cc(OC)c(Cl)cc4Cl)c3cc2OC)CC1

stdout:
1. 6.03
2. 5.72
3. 6.89
